- STUDY TARGET: EP2 subtype of the human PGE2 receptor (Homo sapiens)
- Sequence (P43116 whole entry): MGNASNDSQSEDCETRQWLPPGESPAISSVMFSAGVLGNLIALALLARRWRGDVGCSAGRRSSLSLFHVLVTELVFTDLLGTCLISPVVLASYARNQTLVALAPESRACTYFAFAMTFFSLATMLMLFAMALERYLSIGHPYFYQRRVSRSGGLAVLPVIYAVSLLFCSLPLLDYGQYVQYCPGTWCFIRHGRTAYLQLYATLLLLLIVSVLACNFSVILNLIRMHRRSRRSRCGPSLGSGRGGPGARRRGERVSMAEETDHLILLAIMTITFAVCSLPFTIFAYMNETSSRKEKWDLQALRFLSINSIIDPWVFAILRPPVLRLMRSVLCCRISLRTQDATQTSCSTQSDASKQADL
- PROCEDURE SUMMARY: cAMP antagonism test on the human EP2 receptor (HTRF cAMP detection)
- Type: cell-based
- ASSAY SETUP: hEP2 receptor, read-out: Antagonism hEP2 IC50
Please provide measured log10 of IC50 for the entries that follow.
Plainly stated, the numbers are log10 of IC50 given in nM.

q: Give recorded log10 of IC50. COCCNC(=O)c1ccc2nn(CC3CCN(C(=O)c4ccc(-c5ccc(OC)nc5)cc4)CC3)cc2c1C [Example 375]
a: 0.76

q: Give recorded log10 of IC50. Cc1c(C(=O)NCC2COCCO2)ccc2nn(CC3CCN(C(=O)c4ccc(-c5ccc(F)cc5)cc4)CC3)cc12 (racemic) [Example 411]
a: 1.22

q: Give recorded log10 of IC50. Cc1c(C(=O)NCC2CCCCO2)ccc2nn(CC3CN(C(=O)c4ccc(Cl)cc4)C3)cc12 (single isomer, unassigned) [Example 145]
a: 1.27

q: Give recorded log10 of IC50. COCCNC(=O)c1ccc2nn(CC3CCN(C(=O)c4ccc(Oc5ccc(OC)cc5)cc4)CC3)cc2c1C [Example 18]
a: 0.88

q: Give recorded log10 of IC50. COCCNC(=O)c1ccc2nn(C[C@@H]3CCN(C(=O)c4ccc(S(F)(F)(F)(F)F)cc4)C3)cc2c1C [Example 219]
a: 2.44

q: Give recorded log10 of IC50. COCCNC(=O)c1ccc2nn(CC3CCN(C(=O)c4ccc(C#N)cc4F)CC3)cc2c1C [Example 1]
a: 2.01

q: Give recorded log10 of IC50. Cc1cc2nn(CC3CCN(C(=O)c4ccc(OC(F)(F)F)cc4)CC3)cc2cc1C(=O)NCCN1CCOCC1 [Example 75]
a: 1.83
